tested-target: Y300A Rho-MatB (Rhodopseudomonas palustris, UniProt Q6ND88, C106A/K488A/Q457C/R286C/Y300A)
Construct: His6-tag, Rho-MatB background, two tetramethylrhodamines (5-IATR)
measurement-description: Survey fluorescence titration of tetramethylrhodamine-labelled MatB variants with ATP in 50 mM Tris.HCl pH 7.5, 150 mM NaCl, 10 mM MgCl2, 0.3 mg/ml BSA, 20°C, without full optimization of labelling and purification.
pKd: −log10 of the molar value.
measured-metric: pKd

- compound: "Nc1ncnc2c1ncn2[C@@H]1O[C@H](COP(=O)(O)OP(=O)(O)OP(=O)(O)O)[C@@H](O)[C@H]1O [ATP, adenosine 5'-triphosphate]"
  recorded-number: 4.95
